target: IL23R_huFC (human) (UniProt Q5VWK5); assay: IL23-IL23R competitive binding ELISA
Sequence (Q5VWK5 24-353 limits assumed): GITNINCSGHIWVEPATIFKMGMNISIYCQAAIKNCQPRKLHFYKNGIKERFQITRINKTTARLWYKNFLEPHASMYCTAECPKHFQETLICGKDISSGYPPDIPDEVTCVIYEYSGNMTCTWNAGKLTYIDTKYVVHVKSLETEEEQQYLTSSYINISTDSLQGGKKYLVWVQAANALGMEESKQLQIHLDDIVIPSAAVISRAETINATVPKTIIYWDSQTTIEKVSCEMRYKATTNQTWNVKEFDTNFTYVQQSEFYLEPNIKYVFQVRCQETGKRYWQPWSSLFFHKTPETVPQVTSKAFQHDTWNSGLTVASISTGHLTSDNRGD
*1 amine or outer side, *2 acyl side, *3 side chain or, on linkers, in order; H or OH if unused. Bridges are numbered along the chain shown (N, C = ends). Primed or numbered codes have the meaning given here. [ ]: non-standard residue; d: D form. Phe(4-(2-acetylaminoethoxy))″ = 4-(2-acetylaminoethoxy)phenylalanine, CC(=O)NCCOc1ccc(C[C@H](N[*:1])C(=O)[*:2])cc1; 2Nal = N[C@@H](Cc1ccc2ccccc2c1)C(=O)O; AEF = NCCOc1ccc(C[C@H](N)C(=O)O)cc1; Pen = CC(C)(S)[C@H](N)C(=O)O; αMeK = C[C@](N)(CCCCN)C(=O)O; Dap = NC[C@H](N)C(=O)O
# maps each entry to its IC50

Guide cases for IC50, answers given:
{"binder": "XQTWQXFXXKNN (Ac; Pen-Pen disulfide; Phe[4-(2-aminoethoxy)]; 2-Nal; Aib; Lys(Ac); NH2) [Ac-[Pen]-QTWQ-[Pen]-[Phe[4-(2-aminoethoxy)]-[2-Nal]-Aib-[Lys(Ac)]-NN-NH2]", "IC50": "< 10 nM"}
{"binder": "XQTWQXFXXKNN (Ac; Pen-Pen disulfide; Phe[4-(2-acetylaminoethoxy)]; 2-Nal; Aib; Lys(Ac); NH2) [Ac-[Pen]-QTWQ-[Pen]-[Phe[4-(2-acetylaminoethoxy)]-[2-Nal]-[Aib]-[Lys(Ac)]-NN-NH2]", "IC50": "< 10 nM"}
{"binder": "Ac-[Pen][Dap]TWQ[Pen][AEF][2Nal][αMeK]ENG-NH2 (disulfide 1-6 (inferred)) [Ac-[Pen]-[Dap]-TWQ-[Pen]-[Phe[4-(2-aminoethoxy)]-[2-Nal]-[α-MeLys]-ENG-NH2]", "IC50": "< 10 nM"}
{"binder": "Ac-[Pen][Dap](Ac)TWQ[Pen][Phe(4-(2-acetylaminoethoxy))″][2Nal][αMeK](Ac)ENG-NH2 (disulfide 1-6 (inferred)) [Ac-[Pen]-Dap(Ac)TWQ-[Pen]-[Phe[4-(2-acetylaminoethoxy)]-[2-Nal]-[α-MeLys(Ac)]-ENG-NH2]", "IC50": "10 to 25 nM"}
{"binder": "XQTWQXFXXKNG (Ac; Pen-Pen disulfide; Phe(4-OMe); 2-Nal; α-MeOrn; Lys(Ac); NH2) [Ac-[Pen]-QTWQ-[Pen]-[Phe(4-OMe)]-[2-Nal]-[α-MeOrn]-[Lys(Ac)]-NG-NH2]", "IC50": "100 to 1000 nM"}

input: Supply recorded IC50 for XNTWQXFXXKNN (Ac; Pen-Pen disulfide; Phe(4-CONH2); 2-Nal; Acvc; NH2; DIG linker joins the two subunits) [[Ac-[Pen]-NTWQ-[Pen]-[Phe(4-CONH2)]-[2-Nal]-[Acvc]-KNN-NH2]2DIG] here.
output: < 10 nM
